B1: HDV Ribozyme (parent)
chain: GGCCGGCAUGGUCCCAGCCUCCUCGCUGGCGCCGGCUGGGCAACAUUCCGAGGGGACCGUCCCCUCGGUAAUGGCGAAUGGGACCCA

variants of: B1; assay: self-cleavage, relative activity (ratio to wild type); higher = more cleavage; co-transcriptional
A collection of variants and their measured self-cleavage
# answer = number (no unit)

// known answers, use as guide
BIOPOLYMER_SEQUENCE | self-cleavage
GGCCGGCAUGGUCCCAGCCUCCUCGCUGGCGCCGGCUGUGCAACAUUCCGAGGGGAACGUCCCCUCGGUAAUGGCGAAUGGGACCCA [G39U C57A] | 0.941
GGCCGGCAUGUUCCCAGCCUCCUCGCUGGCGCCGGCUGGGCAACAUUCAGAGGGGACCGUCCCCUCGGUAAUGGCGAAUGGGACCCA [G11U C49A] | 0.307
GGCCGGCAUGGUCCCAGCCUCCUCGCUGGCGCCGGCUGGGCAACAUUCCGAGGGGACCGUCACCUCGGUAUUGGCGAAUGGGACCCA [C62A A71U] | 0.892
GGCCGGCAUGGUCCCAGCCUCCUCGCUGGCGCCGGCUAGGCAACAUUCCGAGGGGACCGUCCCCUCGGUAAUGGCGAAUGGGACCCU [G38A A87U] | 0.121
GGCCGGCAUGGUCCCAGCCUCCUCGCUGGCGCCGGCUGGGCACCAUUCCGAGGGGACCGUGCCCUCGGUAAUGGCGAAUGGGACCCA [A43C C61G] | 0.359

If you can, please state the reported self-cleavage value of GGCCGGGAUGGUCCCAGCAUCCUCGCUGGCGCCGGCUGGGCAACAUUCCGAGGGGACCGUCCCCUCGGUAAUGGCGAAUGGGACCCA [C7G C19A] .
0.0831

If you can, please state the reported self-cleavage value of GGCGGGCAUGGUCCCAGCCUCCUCGCUGGCGCCGGCUGGGCAACAUUCCGAGGGGACCGUCCCCUCGGUUAUGGCGAAUGGGACCCA [C4G A70U] .
0.35

If you can, please state the reported self-cleavage value of GGCCGGCAUGGUCCCAGCCUCCUCGCUGGCGCCGGCGGGGCAACAUUCCGAGGGGACCGUCCCCUCGGUAAUGGCGAAUGGGACCGA [U37G C86G] .
0.111

If you can, please state the reported self-cleavage value of GGCCGGCAUGGUCCCAGCCUCCUCGCUGGCGCCGGCUGGGCAACAUUCCGAGGGGACCGUUCCCUCGGUAAUGGCGAAUUGGACCCA [C61U G80U] .
0.217

If you can, please state the reported self-cleavage value of GGCCGGCAAGGUCCCAGCCUCCUCGCUGGCGCCGGCUGGGCAACAGUCCGAGGGGACCGUCCCCUCGGUAAUGGCGAAUGGGACCCA [U9A U46G] .
1.08

If you can, please state the reported self-cleavage value of GACCGGCAUGGUCCCAGCCUCCUCGCUGGCGCCGGCUGGGAAACAUUCCGAGGGGACCGUCCCCUCGGUAAUGGCGAAUGGGACCCA [G2A C41A] .
0.168

If you can, please state the reported self-cleavage value of GGCCGGCAUGUUCCCAGCCUCCUCGCUGGCGCCGGCUGGGCAACAUUCCGAGGGGACCGUCCCCUCGGUAAUGGCGAAUGCGACCCA [G11U G81C] .
0.126

If you can, please state the reported self-cleavage value of GGCCGGCAUGGUCCCAGCCUCCUCGCUGGCGCCGGCUGGGCAACAUUCCGAGGGGACCGUCCCCUCGGUAAUGGCGUAUGGGACCCG [A77U A87G] .
0.591

FYI, the data here is from the RNAGym collection of RNA variant scans (doi:10.7554/elife.80360).
